All values here come from PubChem BioAssay (NCI).

Test system: SK-MEL-5 melanoma
Test: NCI tumour cell line growth inhibition, 48 h
experimental_readout: TGI (µM)
The answer is to be given in µM; state only the numeric part.

As a guide, the following entries are already answered.
>  <molecule>
Nc1ncnc2c1nc(N)n2C1OC(CO)C(O)C1O (stereo not drawn)

>  <TGI / µM>
2.61

$$$$
>  <molecule>
Cc1ccn2c(-c3csc(Nc4cccc(O)c4)n3)c(C)nc2c1

>  <TGI / µM>
11.1

$$$$
>  <molecule>
C[C@@H](Oc1cc(-c2cnn(C3CC4(CNC4)C3)c2)cnc1N)c1c(Cl)ccc(F)c1Cl

>  <TGI / µM>
12.2

$$$$
>  <molecule>
Nc1nc(Cl)cc(NCC2(CO)CC(c3ccccc3)C2)n1 (stereo not drawn)

>  <TGI / µM>
29.4

$$$$
>  <molecule>
CC(=O)OCC1OC(N2C(=O)CC(N)=Nc3ccccc32)C(OC(C)=O)C(OC(C)=O)C1OC(C)=O (stereo not drawn)

>  <TGI / µM>
46.8

$$$$
>  <molecule>
COc1ccc(/C=C/c2ccnc3ccccc23)cc1

>  <TGI / µM>
27.5

$$$$
>  <molecule>
CS(=O)/C(C#N)=C\C=C\c1cccc(Cl)c1 (stereo not drawn)

>  <TGI / µM>
3.96

$$$$
>  <molecule>
N#CC12CC=C(c3ccccc3)N=C1NC(c1ccccc1)=CC2 (stereo not drawn)

>  <TGI / µM>
39.4

$$$$

q: Please indicate TGI recorded for Cc1cc(NS(=O)(=O)c2ccc(NC(=O)COc3ccc(-c4cc5ccccc5[nH]4)cc3)cc2)no1
a: 6.84

q: Return reported TGI. Input molecule: Cc1cc(N2CCN(C)CC2)nc(N(CCNc2ccnc3cc(Cl)ccc23)Cc2ccco2)n1
a: 3.24

q: Retrieve TGI measured for O=C(N/N=C/c1ccncc1)c1ccc(C(F)(F)F)nc1Nc1cccc(C(F)(F)F)c1 and print it.
a: 11.7

q: Quote TGI reported for O=[N+]([O-])c1ccc(/C=N/n2c(CCc3n[nH]c(=S)n3/N=C/c3ccc([N+](=O)[O-])o3)n[nH]c2=S)o1 please.
a: 33.3

###

Tested on: A498 renal
Assay: NCI tumour cell line growth inhibition, 48 h
Reported values of log10(TGI) for individual entries
Recorded TGI (log10, µM)

Below: 5 molecules and their reported log10(TGI).
>  <molecule>
Cc1cc2oc(=O)c(Cl)c(Cl)c2c(C)c1Cl

>  <system_tested>
A498 renal

>  <experimental_readout>
log10(TGI)

>  <recorded_result>
1.53

$$$$
>  <molecule>
O=S1CCN(Cc2ccc(-c3ccc4ncnc(Nc5ccc(OCc6ccccc6)c(F)c5)c4c3)o2)CC1

>  <system_tested>
A498 renal

>  <experimental_readout>
log10(TGI)

>  <recorded_result>
1.33

$$$$
>  <molecule>
CCOC(=O)c1c(C(F)(F)F)n([O-])c2ccc(Cl)cc2[n+]1=O

>  <system_tested>
A498 renal

>  <experimental_readout>
log10(TGI)

>  <recorded_result>
0.59

$$$$
>  <molecule>
Cc1ccc(C2NC(=S)N3C(c4ccc(C)cc4)NC(=S)N23)cc1 (stereo not drawn)

>  <system_tested>
A498 renal

>  <experimental_readout>
log10(TGI)

>  <recorded_result>
1.26

$$$$
>  <molecule>
CCOP(=O)(CCN1CCN(CCCCCOc2cc3c(cc2OC)C(=O)N2CCC[C@H]2C=N3)CC1)OCC

>  <system_tested>
A498 renal

>  <experimental_readout>
log10(TGI)

>  <recorded_result>
1.63

$$$$

q: Tell us which log10(TGI) value is on record for N#CC12CC=C(c3ccccc3)N=C1NC(c1ccccc1)=CC2 (stereo not drawn)
a: 1.99

q: Specify measured log10(TGI) for Nc1ncnc2c1nc(N)n2C1OC(CO)C(O)C1O (stereo not drawn) .
a: 0.29

q: Answer with the recorded log10(TGI) of CN(CCNC(=O)c1cn(C)c2c1ccc1cc(Cl)ccc12)CCNC(=O)c1cn(C)c2c1ccc1cc(Cl)ccc12 only.
a: 1.16
